Catalogue of EC50 values
System: RSV (Group A, Long Strain)
Experiment: Cytopathetic effect (CPE) protection antiviral assay, MTT readout
Assay type: cell-based
Details: human respiratory syncytial virus, HEp-2, 96 h, HEp-2 cells, 0.2 MOI RSV, 4 days incubation, protection from CPE (Table 1); read-out: RSV EC50
readout.label: EC50

molecule	readout.label	observed.result
CC(C)C1CN(c2cnc3ccccc3n2)CCN1/C(=N\C#N)Nc1cc(C(C)(C)C)nn1C (centres unmarked)	EC50	> 6.6 µM
Cc1cccc(C)c1N/C(=N/C#N)N1CCN(c2cnc3ccccc3n2)CC1C(C)C (centres unmarked)	EC50	0.54 µM
Cc1ccccc1N/C(=N/C#N)N1CCN(c2cnc3ccccc3n2)CC1C (centres unmarked)	EC50	> 10 µM
Cc1cc(F)c(F)cc1N/C(=N/C#N)N1CCN(c2cnc3ccccc3n2)CC1C(C)C (centres unmarked)	EC50	> 3.1 µM
Cc1ccccc1N/C(=N/C#N)N1CCN(c2cnc3ccccc3n2)CC12CC2	EC50	> 10 µM
Cc1ccccc1N/C(=N/C#N)N1CCN(c2ncc3ccccc3n2)CC1C(C)C (centres unmarked)	EC50	> 32 µM
CC(C)C1CN(c2cnc3ccccc3n2)CCN1/C(=N\C#N)Nc1ccccc1OC(F)(F)F (centres unmarked)	EC50	> 10 µM
Cc1ccccc1N(C)C(=NC#N)N1CCN(c2cnc3ccccc3n2)CC1C(C)C (centres unmarked)	EC50	3.4 µM

###

System: RSV (Group A, Long Strain)
Test: Cytopathetic effect (CPE) protection antiviral assay, MTT readout
Type: cell-based
Settings: human respiratory syncytial virus, HEp-2, 96 h, HEp-2 cells, 0.2 MOI RSV, 4 days incubation, protection from CPE (Table 1); read-out: RSV EC50
readout.label: EC50

compound	readout.label	observed.result
Cc1ccccc1N/C(=N/C#N)N1CCN(c2cnc3cc(Cl)c(Cl)cc3n2)CC1C(C)C (centres unmarked) [Example 1.58]	EC50	> 3.2 µM
Cc1cc(F)ccc1N/C(=N/C#N)N1CCN(c2cnc3ccccc3n2)CC1C(C)C (centres unmarked) [Example 1.32]	EC50	> 10 µM
Cc1ccccc1NC(=NC#N)N1CCN(c2nc(C)c(C)c(NC3CCCCC3)n2)CC1C(C)C (centres unmarked) [Example 1.64]	EC50	> 10 µM
Cc1ccccc1N/C(=N/C#N)N1CCN(c2cnc3ccccc3n2)CC12CCC2 [Example 1.43]	EC50	> 10 µM
Cc1c(F)cccc1N/C(=N/C#N)N1CCN(c2cnc3ccccc3n2)CC1C(C)C (centres unmarked) [Example 1.29]	EC50	> 3.16 µM

###

Tested on: RSV (Group A, Long Strain)
Assay: Cytopathetic effect (CPE) protection antiviral assay, MTT readout
Format: cell-based
Settings: human respiratory syncytial virus, HEp-2, 96 h, HEp-2 cells, 0.2 MOI RSV, 4 days incubation, protection from CPE (Table 1); read-out: RSV EC50
pEC50: −log10 of the molar value.
Catalogue of pEC50 values

compound	pEC50
Cc1ccccc1NC(=NC#N)N1CCN(c2ccc3cccnc3n2)CC1C(C)C (centres unmarked)	5.82
Cc1cccc(N/C(=N/C#N)N2CCN(c3cnc4ccccc4n3)CC2C(C)C)c1 (centres unmarked)	6.40
CC(C)C1CN(c2cnc3ccccc3n2)CCN1/C(=N\C#N)Nc1ccccc1Cl (centres unmarked)	6.82
Cc1ccccc1NC(=NC#N)N1CCN(c2ccc3nccnc3n2)CC1C(C)C (centres unmarked)	5.23
Cc1ccccc1N/C(=N/C#N)N1CCN(c2ncnc3ccccc23)CC1C(C)C (centres unmarked)	6.35

###

Test system: RSV (Group A, Long Strain)
Assay: Cytopathetic effect (CPE) protection antiviral assay, MTT readout
Type: cell-based
Conditions: human respiratory syncytial virus, HEp-2, 96 h, HEp-2 cells, 0.2 MOI RSV, 4 days; Table 2, determination repeated to confirm window; read-out: RSV EC50
pEC50: −log10 of the molar value.
Label YES for high-side pEC50 (at or above 6) and NO for low-side pEC50 (below it).

molecule	cat
Cc1ccccc1N/C(=N/C#N)N1CCN(c2nc3ccccc3[nH]2)CC1C(C)C (stereo not shown)	NO
CC(C)C1CN(c2cnc3ccccc3n2)CCN1/C(=N\C#N)Nc1ccccc1Cl (stereo not shown)	YES
Cc1ccccc1N/C(=N/C#N)N1CCN(c2nc3ccccc3c(=O)[nH]2)CC1C(C)C (stereo not shown)	YES
Cc1ccccc1N/C(=N/C#N)N1CCN(c2ncnc3ccccc23)CC1C(C)C (stereo not shown)	YES
Cc1ccccc1N/C(=N/C#N)N1CCN(c2ncnc3[nH]ccc23)CC1C(C)C (stereo not shown)	NO
CCC1CN(c2cnc3ccccc3n2)CCN1/C(=N\C#N)Nc1ccccc1C (stereo not shown)	YES
Cc1ccccc1N/C(=N/C#N)N1CCN(c2cnc3cc(F)ccc3n2)CC1C(C)C (stereo not shown)	YES
Cc1ccccc1N/C(=N/C#N)N1CCN(c2nc3ccccc3s2)CC1C(C)C (stereo not shown)	NO

###

Catalogue of MTT TD50 values
Tested on: HEp-2 cells
Assay: Cytotoxicity assay (MTT) run in parallel with the antiviral assay
Format: cell-based
Settings: uninfected HEp-2 cells, 4 days incubation, 50% toxicity dose
Structures can show the parent of a compound that is named as a salt.
readout.label: MTT TD50

compound	readout.label	observed.result
Cc1ccccc1N/C(=N/C#N)N1CCN(c2cnc3ccccc3n2)CC1C(C)C (stereo not drawn) [Example 1.3, trifluoroacetate]	MTT TD50	>32 µM
Cc1ccc2oc(N3CCN(/C(=N\C#N)Nc4ccccc4C)C(C(C)C)C3)nc2c1 (stereo not drawn)	MTT TD50	>10 µM
Cc1ccccc1N/C(=N/C#N)N1CCN(c2nc3ccccc3[nH]2)CC1C(C)C (stereo not drawn)	MTT TD50	>100 µM
Cc1ccccc1N/C(=N/C#N)N1CCN(c2ncnc3[nH]ccc23)CC1C(C)C (stereo not drawn)	MTT TD50	>100 µM
CCC1CN(c2cnc3ccccc3n2)CCN1/C(=N\C#N)Nc1ccccc1C (stereo not drawn)	MTT TD50	42.06 µM
Cc1ccccc1N/C(=N/C#N)N1CCN(c2nc3ccccc3s2)CC1C(C)C (stereo not drawn)	MTT TD50	>10 µM
Cc1ccccc1N/C(=N/C#N)N1CCN(c2nc3cccc(Cl)c3o2)CC1C(C)C (stereo not drawn)	MTT TD50	>10 µM
Cc1ccccc1N/C(=N/C#N)N1CCN(c2nccnc2C#N)CC1C(C)C (stereo not drawn)	MTT TD50	>100 µM
COC(=O)c1cnc(N2CCN(/C(=N\C#N)Nc3ccccc3Cl)C(C(C)C)C2)cn1 (stereo not drawn)	MTT TD50	>100 µM
CC(C)C1CN(c2cnc3ccccc3n2)CCN1/C(=N\C#N)Nc1ccccc1Cl (stereo not drawn)	MTT TD50	>27.49 µM
Cc1ccccc1N/C(=N/C#N)N1CCN(c2nc3ccccc3c(=O)[nH]2)CC1C(C)C (stereo not drawn)	MTT TD50	>100 µM
Cc1ccccc1N/C(=N/C#N)N1CCN(c2nc3ccccc3o2)CC1C(C)C (stereo not drawn)	MTT TD50	28.85 µM
Cc1ccccc1N/C(=N/C#N)N1CCN(c2cnc3ccccc3n2)C[C@@H]1C(C)C [Example 1.13, trifluoroacetate]	MTT TD50	>38.6 µM
Cc1ccccc1N/C(=N/C#N)N1CCN(c2ncnc3ccccc23)CC1C(C)C (stereo not drawn)	MTT TD50	>100 µM
Cc1ccccc1N/C(=N/C#N)N1CCN(c2cnc3cc(F)ccc3n2)CC1C(C)C (stereo not drawn)	MTT TD50	>29.31 µM

###

System: RSV (Group A, Long Strain)
Test: Cytopathetic effect (CPE) protection antiviral assay, MTT readout
Assay type: cell-based
Conditions: human respiratory syncytial virus, HEp-2, 96 h, HEp-2 cells, 0.2 MOI RSV, 4 days incubation, protection from CPE (Table 1); read-out: RSV EC50
pEC50: −log10 of the molar value.
Catalogue of pEC50 values
readout.label: pEC50

compound	observed.result
Cc1ccccc1N/C(=N/C#N)N1CCN(c2ncnc3[nH]ccc23)CC1C(C)C (stereo not drawn) [Example 1.11]	5.85
CC(C)C1CN(c2cnc3ccccc3n2)CCN1/C(=N\C#N)Nc1cccc(Cl)c1 (stereo not drawn) [Example 1.28]	5.51
CCC1CN(c2cnc3ccccc3n2)CCN1/C(=N\C#N)Nc1ccccc1C (stereo not drawn) [Example 1.44]	6.92
Cc1ccccc1N/C(=N/C#N)N1CCN(c2nccnc2C#N)CC1C(C)C (stereo not drawn) [Example 1.1]	6.05
Cc1ccccc1N/C(=N/C#N)N1CCN(c2cnc3cc(C(F)(F)F)ccc3n2)CC1C(C)C (stereo not drawn) [Example 1.57]	6.54
Cc1ccccc1NC(=NC#N)N1CCN(c2cnc3cc(F)ccc3n2)C[C@@H]1C(C)C [Example 1.67]	6.44
Cc1ccccc1N/C(=N/C#N)N1CCN(c2cnc3cc(F)ccc3n2)CC1C(C)C (stereo not drawn) [Example 1.54]	6.59
Cc1ccccc1N/C(=N/C#N)N1CCN(c2cnc3ccccc3n2)CC1CC(C)C (stereo not drawn) [Example 1.37]	6.40
CC(C)CC1CN(c2cnc3ccccc3n2)CCN1/C(=N\C#N)Nc1ccccc1Cl (stereo not drawn) [Example 1.41]	5.91
COc1ccccc1N/C(=N/C#N)N1CCN(c2cnc3ccccc3n2)CC1C(C)C (stereo not drawn) [Example 1.18]	5.94
Cc1cccc(F)c1N/C(=N/C#N)N1CCN(c2cnc3ccccc3n2)CC1C(C)C (stereo not drawn) [Example 1.33]	6.52
Cc1ccc2oc(N3CCN(/C(=N\C#N)Nc4ccccc4C)C(C(C)C)C3)nc2c1 (stereo not drawn) [Example 1.7]	6.08
Cc1ccc2ncc(N3CCN(/C(=N\C#N)Nc4ccccc4C)C(C(C)C)C3)nc2c1 (stereo not drawn) [Example 1.56]	5.80
Cc1ccccc1N/C(=N/C#N)N1CCN(c2nc3ccccc3c(=O)[nH]2)CC1C(C)C (stereo not drawn) [Example 1.10]	6.37
Cc1ccccc1N/C(=N/C#N)N1CCN(c2cnc3ccc(F)cc3n2)CC1C(C)C (stereo not drawn) [Example 1.60]	5.98
Cc1ccccc1N/C(=N/C#N)N1CCN(c2nc3cccc(Cl)c3o2)CC1C(C)C (stereo not drawn) [Example 1.5]	6.09
Cc1ccccc1NC(=NC#N)N1CCN(c2nc3ccccc3n2C)CC1C(C)C (stereo not drawn) [Example 1.69]	5.52
